ASSAY_SYSTEM: RhlR (Pseudomonas aeruginosa, UniProt P54292)
Construct: expressed in transfected cells; host or cells: E. coli JLD271 (ΔsdiA) with pJN105R2 (arabinose-induced) and pSC11-rhlI*
Sequence (P54292 whole entry): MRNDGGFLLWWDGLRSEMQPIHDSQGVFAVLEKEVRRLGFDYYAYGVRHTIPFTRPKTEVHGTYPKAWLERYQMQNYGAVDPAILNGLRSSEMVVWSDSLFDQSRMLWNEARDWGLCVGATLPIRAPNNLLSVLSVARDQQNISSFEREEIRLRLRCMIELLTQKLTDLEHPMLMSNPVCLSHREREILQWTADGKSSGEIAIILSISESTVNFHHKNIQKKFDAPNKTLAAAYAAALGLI
METHOD_DESCRIPTION: E. coli RhlR reporter agonism assay (JLD271/pJN105R2/pSC11-rhlI*)
Format: cell-based, P. aeruginosa
CONDITION_PARAMETERS: read-out: Maximum Activation (%)
MEASURE: Emax (%)

>>> print(df.to_string())
                                   molecule  measure  observed_value
0                   CCCCC(=O)N[C@H]1CCOC1=O     Emax              80
1                 O=C(N[C@H]1CCCC1=O)C1CCC1     Emax              93
2                 CC(C)CC(=O)N[C@H]1CCSC1=O     Emax              93
3                 O=C(CC1CC1)N[C@H]1CCOC1=O     Emax              95
4                    CCCC(=O)N[C@H]1CCSC1=O     Emax             102
5  CCCC(=O)N[C@H]1CCOC1=O [BHL, N-butanoyl L-homoserine lactone, reference compound]     Emax             100
